Biological target: huSTING (WT) (Homo sapiens (Human), UniProt Q86WV6, H232R)
Sequence (Q86WV6 whole entry H232R): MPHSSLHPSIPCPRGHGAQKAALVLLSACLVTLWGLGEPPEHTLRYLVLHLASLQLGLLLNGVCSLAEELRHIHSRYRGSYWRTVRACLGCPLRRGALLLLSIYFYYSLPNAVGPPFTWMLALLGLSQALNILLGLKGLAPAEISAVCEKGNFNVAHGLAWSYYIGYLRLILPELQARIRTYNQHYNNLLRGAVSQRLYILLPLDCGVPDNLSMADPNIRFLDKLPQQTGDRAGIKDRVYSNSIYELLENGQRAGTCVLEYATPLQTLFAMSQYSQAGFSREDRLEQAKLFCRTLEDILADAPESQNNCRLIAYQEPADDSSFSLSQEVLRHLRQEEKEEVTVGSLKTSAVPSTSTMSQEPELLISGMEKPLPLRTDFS
Experiment: THP-1 reporter cell line assay, THP-1-Dual KI-hSTING-R232 cells
Assay type: cell-based
Settings: read-out: Cellular EC50 huSTING (WT)
value.type: EC50

> print(dat)
                                 cpd.smiles  value.type   result
1  CCOC(=O)c1sc2cccc(Cl)c2c1COc1c(C)cc(C(N)=O)cc1OC        EC50  > 50 µM
2  NC(=O)c1cc(F)c(OCc2c(C(=O)O)sc3cccc(F)c23)c(Br)c1        EC50  > 50 µM
3  COc1ncnc2sc(C(=O)O)c(COc3c(F)cc(C(N)=O)cc3F)c12        EC50  > 40 µM
4  NC(=O)c1cc(F)c(OCc2c(C(=O)O)sc3c(F)ccc(F)c23)c(F)c1        EC50  > 50 µM

###

Target: huSTING (WT) (Homo sapiens (Human), UniProt Q86WV6, H232R)
Assay: THP-1 reporter cell line assay, THP-1-Dual KI-hSTING-R232 cells
Type: cell-based
Settings: read-out: Cellular EC50 huSTING (WT)
value.type: EC50

> print(dat)
                                 cpd.smiles  value.type   result
1  NC(=O)c1ccc(OCc2c(C(=O)O)sc3ccc(F)c(F)c23)cc1        EC50  > 50 µM
2  NC(=O)c1ccc(OCc2c(C(=O)O)sc3cccc(C(F)(F)F)c23)cc1        EC50  > 50 µM
3  NC(=O)CNC(=O)c1sc2cccc(Cl)c2c1COc1c(F)cc(C(N)=O)cc1F        EC50  > 40 µM

###

Target: huSTING (WT) (Homo sapiens (Human), UniProt Q86WV6, H232R)
Assay: THP-1 reporter cell line assay, THP-1-Dual KI-hSTING-R232 cells
Format: cell-based
Conditions: read-out: Cellular EC50 huSTING (WT)
pEC50: −log10 of the molar value.
Quick reference: pEC50 of the listed items.
value.type: pEC50

> print(dat)
                                   compound                             system.tested  value.type  result
1  NC(=O)c1ccc(OCc2c(C(=O)O)sc3cccc(F)c23)cc1C(F)(F)F [Example 52]  huSTING (WT) (Homo sapiens (Human), UniProt Q86WV6, H232R)       pEC50  < 4.30
2  CCOC(=O)c1sc2cc(Cl)ccc2c1COc1ccc(C(N)=O)cc1 [Example 9]  huSTING (WT) (Homo sapiens (Human), UniProt Q86WV6, H232R)       pEC50  < 4.30
3  NC(=O)c1ccc(OCc2c(C(=O)O)sc3cccc(F)c23)c(F)c1 [Example 59]  huSTING (WT) (Homo sapiens (Human), UniProt Q86WV6, H232R)       pEC50  < 4.30

###

Quick reference: ΔTm at 100 µM of the listed items.
Biological target: human STING (HAQ) (Homo sapiens, UniProt Q86WV6, G230A/H232R/R293Q)
Sequence (Q86WV6 whole entry G230A/H232R/R293Q, looked up): as the sequence (Q86WV6 whole entry H232R) above, with G230A, R293Q counted along it
Assay: biochemical
Format: binding
Details: read-out: DSF huSTING (HAQ) ΔTm (° C.)
value.type: ΔTm at 100 µM

> print(dat)
                                  cpd.smiles    result
 1  CCOC(=O)c1sc2cccc(Cl)c2c1COc1ccc(C(N)=O)cc1   0.26 °C
 2  CCOC(=O)c1sc2cccc(F)c2c1COc1c(F)cc(C(N)=O)cc1F   1.44 °C
 3  NC(=O)c1ccc(OCc2c(C(=O)O)sc3ccc(F)c(Cl)c23)cc1   6.48 °C
 4  NC(=O)c1ccc(NCc2c(C(=O)O)sc3cccc(Cl)c23)cc1   2.43 °C
 5  Cc1cccc2sc(C(=O)O)c(COc3ccc(C(N)=O)cc3)c12     16 °C
 6  NC(=O)c1ccc(OCc2c(C(=O)O)sc3cccc(Cl)c23)c(F)c1F   11.1 °C
 7  NC(=O)c1cc(F)c(OCc2c(C(=O)O)sc3ccc(F)c(Cl)c23)c(F)c1   10.1 °C
 8  NC(=O)c1ccc(OCc2c(C(=O)O)sc3c(F)ccc(F)c23)cc1   9.29 °C
 9   CCOC(=O)c1sc2ccccc2c1COc1ccc(C(N)=O)cc1  -0.48 °C
10  CCOC(=O)c1sc2cc(Cl)ccc2c1COc1ccc(C(N)=O)cc1   0.71 °C
11  CC(C)OC(=O)c1sc2cccc(F)c2c1COc1ccc(C(N)=O)cc1   0.13 °C
12   NC(=O)c1ccc(OCc2c(C(=O)O)sc3cccnc23)cc1    0.6 °C
13  CCOC(=O)c1sc2ccc(Cl)cc2c1COc1ccc(C(N)=O)cc1  -0.15 °C
14  NC(=O)c1cc(F)c(OCc2c(C(=O)O)sc3c(F)ccc(F)c23)c(F)c1   14.9 °C

Origin of measurements: patent US11613525B2
